Consider the following compounds; for each one, report its EC50.
- Measured target: GPR120L receptor (Homo sapiens (Human), UniProt Q5NUL3)
- Sequence (Q5NUL3 other isoform, or with tags, fused parts or gaps): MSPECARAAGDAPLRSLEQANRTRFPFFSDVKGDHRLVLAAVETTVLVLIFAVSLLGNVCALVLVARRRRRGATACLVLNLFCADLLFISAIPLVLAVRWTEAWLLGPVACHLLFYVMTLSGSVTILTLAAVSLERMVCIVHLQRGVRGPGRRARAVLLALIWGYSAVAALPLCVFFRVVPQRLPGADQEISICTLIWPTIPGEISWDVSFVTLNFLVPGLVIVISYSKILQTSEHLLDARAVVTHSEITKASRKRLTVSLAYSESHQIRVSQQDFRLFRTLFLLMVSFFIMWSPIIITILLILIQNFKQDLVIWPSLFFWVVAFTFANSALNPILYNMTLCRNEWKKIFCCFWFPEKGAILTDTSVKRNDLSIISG
- Method description: Beta (β) arrestin 2 Interaction Assay (BRET assay), β-galactosidase enzyme fragment complementation
- Details: CHO-K1 cells stably expressing the GPR120L receptor; β-arrestin recruitment; 2 hours incubation
- Experimental: Beta (β) arrestin 2 Interaction Assay (BRET assay) was performed using CHO-K1 cells stably expressing the GPR120L receptor using β-galactosidase (Beta gal) enzyme fragment complementation assay. […] Extent of Arrestin recruitment was measured by adding detection reagents for Beta gal complementation assay and was further incubated for 1 hour. The chemi-luminescent signal was detected on Polar Star (BMG Labtech). The dose-response curve was analyzed using Sigma Plot/Graph Pad. […]

Q. Give its EC50 value. Item: C=C1CCCc2cc(-c3ccc(F)cc3COc3ccc(CCCC(=O)O)cc3)ccc21 [Example 36]
A. 10 to 500 nM

Q. Give its EC50 value. Item: O=C(O)CCCc1ccc(OCc2cc(F)ccc2-c2ccc(C3CCCCC3)cc2)cc1 [Example 16]
A. 500 to 5000 nM

Q. Give its EC50 value. Item: O=C(O)CCCc1ccc(OCc2cc(F)ccc2-c2ccc(C3CC3)nc2)cc1 [Example 30]
A. 10 to 500 nM

Q. Give its EC50 value. Item: N#CC1(c2ccc(-c3ccc(F)cc3COc3ccc(CCCC(=O)O)cc3)s2)CC1 [Example 1]
A. 10 to 500 nM

Q. Give its EC50 value. Item: O=C(O)CCCc1ccc(OCc2cc(F)ccc2-c2nc3c(s2)COCC3)cc1 [Example 49]
A. 10 to 500 nM

Q. Give its EC50 value. Item: O=C(O)CCCc1ccc(OCc2cc(F)ccc2-c2scnc2C2CC2)cc1 [Example 32]
A. 5000 to 50000 nM

Q. Give its EC50 value. Item: O=C(O)CCCc1ccc(OCc2ccccc2-c2ccc3c(c2)CCC3)cc1 [Example 33]
A. 10 to 500 nM

Reference source for all entries: patent US10227360B2
